- tgt: GSTO1 (Homo sapiens)
- Sequence (P78417 whole entry): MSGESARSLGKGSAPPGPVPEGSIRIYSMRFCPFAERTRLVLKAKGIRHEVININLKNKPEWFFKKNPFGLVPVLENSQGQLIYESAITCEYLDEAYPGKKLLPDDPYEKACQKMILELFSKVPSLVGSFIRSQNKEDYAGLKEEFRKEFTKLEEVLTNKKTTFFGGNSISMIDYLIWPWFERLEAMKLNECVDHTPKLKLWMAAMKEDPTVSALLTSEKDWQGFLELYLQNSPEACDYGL
- assay protocol: In-gel fluorescence competitive CMFDA binding assay, recombinant GSTO1
- experimental parameters: inhibition of CMFDA binding
parameter: GSTO binding assay (% Inhibition at 10 µM) Recombinant (%)
Write the answer as a number in %, unit excluded.

N#CCCN(C(=O)CCl)c1cccc(C(F)(F)F)c1 [C4-2]
53.2
CCOC(=O)c1c(NC(=O)CCl)sc(Cl)c1-c1ccccc1 [C2-9]
50.0
CC(C)c1ccc(C(NC(=O)CCl)C(C)C)cc1 (stereo not shown) [C3-6]
53.7
Cc1cc(S(=O)(=O)N(C)C)cc(NC(=O)CCl)c1C [C1-26]
51.4
CCN(CC)S(=O)(=O)c1ccc(CNC(=O)CCl)cc1 [C3-2]
63.3

## Input Identify measured GSTO binding assay (% Inhibition at 10 µM) Recombinant associated with CN(Cc1cnn(-c2ccccc2)c1)C(=O)CCl [C4-10]
## Output 66.4

## Input Identify measured GSTO binding assay (% Inhibition at 10 µM) Recombinant associated with O=C(CCl)Nc1cc2c(cc1Cl)OCCCO2 [C1-11]
## Output 55.2

## Input Identify measured GSTO binding assay (% Inhibition at 10 µM) Recombinant associated with COc1cc(NC(=O)CCl)c(Cl)cc1C(=O)O [C1-10]
## Output 49.1

## Input Identify measured GSTO binding assay (% Inhibition at 10 µM) Recombinant associated with CC1CCc2c(sc(NC(=O)CCl)c2C(N)=O)C1 (stereo not shown) [C2-18]
## Output 72.8

## Input Identify measured GSTO binding assay (% Inhibition at 10 µM) Recombinant associated with CC(=O)c1cc2c(cc1NC(=O)CCl)OCO2 [C1-9]
## Output 56.5

## Input Identify measured GSTO binding assay (% Inhibition at 10 µM) Recombinant associated with CCOC(=O)c1sc(-c2ccccc2)cc1NC(=O)CCl [C2-11]
## Output 58.2

## Input Identify measured GSTO binding assay (% Inhibition at 10 µM) Recombinant associated with O=C(CCl)N1CCN(S(=O)(=O)c2ccc3c(c2)OCCO3)CC1 [C5-15]
## Output 62.4

## Input Identify measured GSTO binding assay (% Inhibition at 10 µM) Recombinant associated with O=C(CCl)Nc1sc2c(c1C(=O)c1ccccc1)CCCC2 [C2-20]
## Output 68.3
